Please go through the items and note down their pKd.
- tested.system: T1, human Tim-3 expressed on the cell surface (human, UniProt Q8TDQ0 22-301)
- T1 construct: also called hTim-3; Human Tim-3 (CHO)
- assay.name: flow cytometry, CHO-human Tim-3 cells;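 note: antibodies bound on ice for 60 min, detected by PE anti-human IgG Fc secondary, mean fluorescence intensity fit to one-site specific binding with Hill slope, parental CHO cells as nonspecific control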
# pKd = -log10(concentration in molar units)

Query: For the binder h22E11-VK4-1 × h22E11-5-IgG-HC (antibody, V domains shown, Humanized m22E11) VH: EVQLVESGGGLVQPGGSLRLSCAVSGFSLTSYGVHWVRQAPGKGLEWLVVIWSDGSTTYNSALKSRFTISKDNAKNSVYLQMNSLRAEDTAVYYCARQGGYRYDDAMDYWGQGTLVTVSS VL: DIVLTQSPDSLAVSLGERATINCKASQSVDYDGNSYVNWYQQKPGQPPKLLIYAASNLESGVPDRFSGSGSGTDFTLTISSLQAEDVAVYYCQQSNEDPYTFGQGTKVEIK , what pKd is on record?
Result: 9.10

Query: Note, next up: h22E11-5-IgG-LC × h22E11-VH3-23 (antibody, V domains shown, Humanized m22E11) VH: EVQLLESGGGLVQPGGSLRLSCAVSGFSLTSYGVHWVRQAPGKGLEWLVVIWSDGSTTYNDSVKGRFTISKDNSKNTVYLQMNSLRAEDTAVYYCARQGGYRYDDAMDYWGQGTLVTVSS VL: EIVLTQSPGTLSLSPGERATLSCKASQSVDYDGNSYVAWYQQKPGQAPRLLIYAASNLESGIPDRFSGSGSGTDFTLTISRLEPEDFAVYYCQQSNEDPYTFGQGTKVEIK
Result: 9.10

Query: Note, next up: h22E11-VK1-39 × h22E11-VH1-69 (antibody, V domains shown, Humanized m22E11) VH: QVQLVQSGAEVKKPGSSVKVSCKVSGFSLTSYGVHWVRQAPGQGLEWLVVIWSDGSTTYNQKFQGRVTITKDESTSTVYMELSSLRSEDTAVYYCARQGGYRYDDAMDYWGQGTLVTVSS VL: DIQLTQSPSSLSASVGDRVTITCKASQSVDYDGNSYVNWYQQKPGKAPKLLIYAASNLESGVPSRFSGSGSGTDFTLTISSLQPEDFATYYCQQSNEDPYTFGQGTKVEIK
Result: 9.22

Query: Note, next up: h22E11-VK3-11 × h22E11-VH3-23 (antibody, V domains shown, Humanized m22E11) VH: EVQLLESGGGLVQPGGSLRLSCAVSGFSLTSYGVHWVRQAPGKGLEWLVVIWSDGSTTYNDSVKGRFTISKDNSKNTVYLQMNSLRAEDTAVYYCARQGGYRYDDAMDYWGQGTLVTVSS VL: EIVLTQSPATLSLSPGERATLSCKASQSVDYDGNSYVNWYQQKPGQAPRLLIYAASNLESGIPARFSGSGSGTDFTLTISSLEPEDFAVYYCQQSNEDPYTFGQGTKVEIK
Result: 9.15

Query: Note, next up: h22E11-VK1-39 × h22E11-VH3-23 (antibody, V domains shown, Humanized m22E11) VH: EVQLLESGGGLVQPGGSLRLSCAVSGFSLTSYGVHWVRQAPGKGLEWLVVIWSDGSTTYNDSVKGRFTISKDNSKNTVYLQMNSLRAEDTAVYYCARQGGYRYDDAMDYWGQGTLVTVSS VL: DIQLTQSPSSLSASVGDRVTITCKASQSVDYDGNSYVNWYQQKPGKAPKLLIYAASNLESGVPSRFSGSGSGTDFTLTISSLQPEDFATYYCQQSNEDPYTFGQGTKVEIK
Result: 9.30
